testMethodNotes: BET inhibitor-based combinations targeting novel dependencies in MECOM-rearranged (r) AML: AML-194 cell line (AID 2202237;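 also: plate controls were vehicle wells for no effect and wells without cells for full effect; nearly all actives have a fitted effect of over 40% in size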)
assayConditions: AML-194 (MECOM-r AML) viability, CellTiter-Glo, 48 h; series mostly up to 46 µM
Protocol: Ecotropic viral insertion site 1 (EVI1) is located on chromosome 3q26.2 as part of the MECOM (MDS and EVI1 complex) locus. […] A collection of 2480 mechanistically annotated dugs (MIPE v5.0) was used to screen four 3q26.2 rearranged AML cell lines and three non-3q26.2 rearranged AML cell lines. […] Cell viability was determined by luminescence based, Cell Titer Glo assay (Promega). […] Luminescence readings were taken using a Viewlux (PerkinElmer) with a 2 s exposure time per plate. […]
Records with an inconclusive call do not appear. Activity calls are given as the source filed them. Calls follow the shape of the dose curve; as a rule, active = well fitted inhibition curve with a large enough effect; inconclusive = small, poorly fitted or top-dose-only effect; inactive = flat fitted curve, though single readings scatter.
Listed here: items and their measured viability (% of control).

smilesRepr | viability (% of control)
O=C(/C=C/c1ccc(/C=C/C(=O)Nc2ccc(C3=NCCN3)cc2)cc1)Nc1ccc(C2=NCCN2)cc1 | 108% [at 5.12 µM] (inactive)
CCCCCN(C)CCC(O)(P(=O)(O)O)P(=O)(O)O | 115% [at 5.12 µM] (inactive)
COc1cc2c(cc1OC)CN(CCc1ccc(-n3nnc(-c4cc(OC)c(OC)cc4NC(=O)c4cc(=O)c5ccccc5o4)n3)cc1)CC2 | 95.7% [at 0.315 µM] (inactive)
Cn1cc(C[C@@H](N)C(=O)O)c2ccccc21 | 109% [at 8.46 µM] (inactive)
CC(C)(S)[C@@H](N)C(=O)O | 114% [at 5.12 µM] (inactive)

###

assayedTarget: Aldehyde dehydrogenase, mitochondrial (Homo sapiens) (UniProt P05091)
testMethodNotes: qHTS for Inhibitors of the Aldehyde Dehydrogenase Family (ALDH2) Primary screen (AID 2061308); also: nearly all actives have a fitted effect of over 55% in size
assayConditions: ALDH2 enzyme inhibition qHTS, 1536-well; series mostly up to 56 µM
Inconclusive results are not listed. Calls of active or inactive are those of the source. The call rests on the fitted dose curve; in most records, active means well fitted inhibition curve with a large enough effect; inconclusive means small, poorly fitted or top-dose-only effect; inactive means flat fitted curve, though single readings scatter.
Outcomes: y = active, n = inactive

compound | assignedClass
N#Cc1cccnc1SC1=NS(=O)(=O)c2ccccc21 | y
COc1cccc(C2=Nn3c(nnc3-c3ccc(OC)cc3OC)SC2)c1 | n
O=C(O)c1cccc(-c2cccc(-c3nn4c(=O)cc(N5CCNCC5)nc4s3)c2)c1 | n
O=[N+]([O-])c1ccccc1S(=O)(=O)Nc1cccc2cccnc12 | n
O=C(NNc1nc2cc(F)ccc2n2cccc12)c1cnccn1 | n
CN(CC(F)(F)F)c1nc(NCc2ccc(-c3cccnc3)cc2)c2ccccc2n1 | n
CCCn1c(-c2ccc(F)cc2)nc2c(NC3CCN(Cc4ccccc4)C3)nc(C)nc21 (stereo unspecified) | n
C=C1C(=O)OC2CC3(C)C(CC12)C(C)=CC(O)C3OC(C)=O (stereo unspecified) | n
CCCn1c(C)nc2c(NCCCN3CCCCC3C)nc(C)nc21 (stereo unspecified) | n
Cc1ccc(NC(=O)CN2C(=O)N/C(=C\c3cccn3-c3ccc(C(=O)NC#N)cc3)C2=O)cc1 | n
O=C(OCC#CCSc1nnc(-c2ccc(Cl)cc2)o1)c1ccc(F)cc1 | n

###

assayedTarget: Retinaldehyde dehydrogenase 3 (Homo sapiens) (UniProt P47895)
testMethodNotes: qHTS for Inhibitors of the Aldehyde Dehydrogenase Family (ALDH1A3) Primary screen (AID 2061315);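 also: plate controls were DMSO vehicle for no effect and reference inhibitor for full effect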
assayConditions: ALDH inhibition qHTS; series mostly up to 56 µM
Inconclusive results are not listed. Active and inactive are the calls of the source. Calls come from the whole dose curve; as a rule, active = well fitted inhibition curve with a large enough effect; inconclusive = small, poorly fitted or top-dose-only effect; inactive = no such curve, though single readings can be large or run the other way.
measure: activity change, negative = inhibition

compound | measure | reported
C=C1C(=O)O[C@H]2/C=C(/C)[C@@H](OC(C)=O)C/C=C(\C)C[C@@H](OC(=O)/C(=C/C)COC(=O)/C(=C/C)CO)[C@@H]12 | activity change, negative = inhibition | inactive
Cc1ccc(S(=O)(=O)Nc2cnccc2C(=O)Nc2nc(-c3ccc(Cl)cc3)cs2)cc1 | activity change, negative = inhibition | inactive
COc1ccc(CN2C(=O)c3ccccc3NC2c2ccc(OC)c(COc3c(C)cc(NC(C)=O)cc3C)c2)cc1 (centres undefined) | activity change, negative = inhibition | inactive
O=[N+]([O-])c1ccc(-c2nc(Nc3ccc(F)c(F)c3)c3ccccc3n2)cc1 | activity change, negative = inhibition | inactive
CNc1oc(-c2cccc3ccccc23)nc1C(=O)OC | activity change, negative = inhibition | inactive
CC(C)c1ccccc1-c1nc(NCc2ccc(-c3cccnc3)cc2)c2[nH]cnc2n1 | activity change, negative = inhibition | inactive
COC(=O)C12C(=O)C(C)=C(O)C1(C)C(C)=CC1C3(CO)CCC(O)C(C)(C)C3CCC12C (centres undefined) | activity change, negative = inhibition | inactive
O=C1CCCC2=C1C(c1[nH]ncc1Cl)N=C(Nc1ccccc1)N2 (centres undefined) | activity change, negative = inhibition | inactive
COc1ccc2nc(-c3ccccc3OC)sc2c1 | activity change, negative = inhibition | inactive

###

testMethodNotes: BET inhibitor-based combinations targeting novel dependencies in MECOM-rearranged (r) AML: HNT-34 cell line (AID 2202234); also: nearly all actives have a fitted effect of over 35% in size; also: potency is read from the fitted curve at half-maximal effect
assayConditions: HNT-34 AML viability, CellTiter-Glo luminescence, 48 h; series mostly up to 46 µM
Results filed as inconclusive are left out. The source made the active and inactive calls. Calls come from the whole dose curve; as a rule, active = well fitted inhibition curve with a large enough effect; inconclusive = small, poorly fitted or top-dose-only effect; inactive = no such curve, though single readings can be large or run the other way.
measure: Potency

molecule | reported
COc1cc(C)[nH]c(=O)c1CN1CCc2c(Cl)cc([C@H](OC)C3COC3)c(Cl)c2C1=O | inactive
Cc1cc(I)ccc1Nc1c(C(=O)NOCC2CC2)cc(F)c(F)c1F | 14.8 µM (active)
CC(=O)NCC(=O)N1[C@@H]2CC[C@H]1c1ccc(Nc3ncc(C(F)(F)F)c(NC4CCC4)n3)cc12 | 0.662 µM (active)
CCN1C(=O)CNc2ncc(-c3ccc(-c4ncn[nH]4)nc3C)nc21 | 2.09 µM (active)
Cc1ccc(-c2ncn(-c3ccc(Nc4nccc(-c5cccc(N6CCOCC6)c5)n4)cc3)n2)cn1 | 2.95 µM (active)
CC(C)(O)CNc1ncc(-c2ccnc(Nc3ccncc3)n2)c(CC2CC2)n1 | 9.34 µM (active)
CCn1cc(-c2ccnc3[nH]c(-c4cccc(CN(C)C)c4)cc23)c(-c2ccc(NC(=O)N(C)C)cc2)n1 | 3.32 µM (active)
c1ccc2c(-c3cnn4cc(-c5ccc(OCCN6CCOCC6)cc5)cnc34)ccnc2c1 | 8.11 µM (active)
CCOC(=O)[C@H](CCc1ccccc1)N[C@H]1CCc2ccccc2N(CC(=O)O)C1=O | inactive
OCCNC1CCCc2c1[nH]c1ccc(-c3ccccc3)cc21 (centres undefined) | 14.8 µM (active)
Cc1cc(-c2nc3cc(F)ccc3s2)ccc1NC(=O)[C@@H](N)CCCCN | 8.33 µM (active)
C[C@@]12C(=O)OC(=O)[C@]1(C)[C@H]1CC[C@@H]2O1 | 2.95 µM (active)
C[C@H]1[C@H](C)CC[C@]2(C(=O)O)CC[C@]3(C)C(=CC[C@@H]4[C@@]5(C)C[C@@H](O)[C@H](O)[C@@](C)(CO)[C@@H]5CC[C@]43C)[C@H]12 | inactive
CC(C)OC(=O)[C@H](C)N[P@](=O)(OC[C@H]1O[C@@H](n2ccc(=O)[nH]c2=O)[C@](C)(F)[C@@H]1O)Oc1ccccc1 | inactive
C[C@@H](O[C@H]1OCCN(Cc2n[nH]c(=O)[nH]2)[C@@H]1c1ccc(F)cc1)c1cc(C(F)(F)F)cc(C(F)(F)F)c1 | 18.6 µM (active)
C=CCN(/C=C1\C(=O)O[C@@H](COC)[C@]2(C)C1=C(O)C(=O)C1=C2[C@@H](OC(C)=O)C[C@]2(C)C(=O)CC[C@H]12)CC=C | 20.9 µM (active)
C[C@@H]1COC(Nc2ccc3ncnc(Nc4ccc(OCc5nccs5)c(Cl)c4)c3c2)=N1 | 20.9 µM (active)
CCN1CCN(Cc2ccc(NC(=O)c3ccc(C)c(/C=C/c4cnc5[nH]ccc5c4OC)c3)cc2C(F)(F)F)CC1 | 0.209 µM (active)
CC1(N)CCN(c2cnc(-c3cccc(Cl)c3Cl)c(N)n2)CC1 | inactive
COc1cc(N2CCN(C)CC2)ccc1Nc1ncc2c(n1)N(C)c1ccccc1C(=O)N2 | 26.3 µM (active)
CO[C@@H]1[C@@H](O)[C@H](O)[C@@H](n2c3c(Cl)cccc3c3c4c(c5c6cccc(Cl)c6[nH]c5c32)C(=O)NC4=O)O[C@H]1CO | 0.59 µM (active)
CCS(=O)(=O)Nc1ccc(Oc2ccc(F)cc2F)c(-c2cn(C)c(=O)c3[nH]ccc23)c1 | 0.0742 µM (active)
CCNC(=O)Nc1ccc(-c2nc3c(c(N4CCOC[C@@H]4C)n2)CCN(C2COC2)C3)cc1 | 1.05 µM (active)
COC(=O)[C@@H]1CC2=CC(=O)CC[C@]2(C)[C@@]23O[C@@H]2C[C@@]2(C)[C@@H](CC[C@@]24CCC(=O)O4)[C@H]13 | inactive
Cc1ccc(Sc2ccccc2N2CCNCC2)c(C)c1 | 16.6 µM (active)
Nc1n[n+]([O-])c2ccccc2[n+]1[O-] | 16.6 µM (active)
NC(CO)(CO)CCc1ccc(Sc2cccc(OCc3ccccc3)c2)cc1Cl | 18.6 µM (active)
Cc1ncc(NC(=O)c2cccc(C(F)(F)F)c2)cc1-c1cnc(OC2CCOCC2)c(N2CCOCC2)c1 | 6.61 µM (active)
C=CC(=O)N[C@H]1CN(c2nc(Nc3cn(C)nc3OC)c3ncn(C)c3n2)C[C@@H]1F | inactive
COc1ccc([C@@H]2CC(=O)c3c(O)cc(O[C@@H]4O[C@H](CO[C@@H]5O[C@@H](C)[C@H](O)[C@@H](O)[C@H]5O)[C@@H](O)[C@H](O)[C@H]4O)cc3O2)cc1O | inactive
CNCc1ccc(C)c(NC(=O)c2ccc(Nc3nc(-c4ccccc4)c4ccccc4n3)cc2)c1 | 20.9 µM (active)
Cc1cc(C(=O)NOCCO)c(Nc2ccc(I)cc2F)n(C)c1=O | 0.0468 µM (active)
N#Cc1ccc(COC[C@H]2O[C@@H](n3c(NCc4ccc(Cl)c(Cl)c4)nc4c(N)ncnc43)[C@H](O)[C@@H]2O)cc1 | 2.95 µM (active)
COc1ccc(-c2oc3ncnc(N)c3c2-c2ccc(NC(=O)Nc3cc(C(F)(F)F)ccc3F)cc2)cc1 | 7.42 µM (active)
